Measured Target: Mitogen-activated protein kinase kinase kinase 3 (Homo sapiens) (UniProt Q99759)
Sequence (Q99759 whole entry, looked up): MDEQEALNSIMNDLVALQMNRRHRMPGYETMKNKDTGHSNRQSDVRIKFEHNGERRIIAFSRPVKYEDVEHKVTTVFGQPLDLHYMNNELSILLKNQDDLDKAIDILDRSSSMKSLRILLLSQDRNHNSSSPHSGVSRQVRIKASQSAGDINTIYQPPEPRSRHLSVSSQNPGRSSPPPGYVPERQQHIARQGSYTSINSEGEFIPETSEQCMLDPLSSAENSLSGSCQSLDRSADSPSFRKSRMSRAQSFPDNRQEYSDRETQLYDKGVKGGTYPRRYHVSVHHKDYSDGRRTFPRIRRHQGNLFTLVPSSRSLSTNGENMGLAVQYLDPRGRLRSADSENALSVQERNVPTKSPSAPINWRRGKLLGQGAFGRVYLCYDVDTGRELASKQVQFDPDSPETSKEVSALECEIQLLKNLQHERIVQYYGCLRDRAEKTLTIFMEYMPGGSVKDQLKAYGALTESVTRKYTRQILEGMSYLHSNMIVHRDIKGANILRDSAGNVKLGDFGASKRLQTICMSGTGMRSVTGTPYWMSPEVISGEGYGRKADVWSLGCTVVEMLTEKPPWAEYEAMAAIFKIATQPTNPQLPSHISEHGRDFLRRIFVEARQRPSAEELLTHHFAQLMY
Protocol Summary: modulators of MEKK3-MEK5 PB1 binding, primary screen, biochemical, wildtype MEKK3, multiplex bead flow cytometry, Alexa488-MEK5 (AID 1529);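 also: Alexa488 bead fluorescence after subtracting the streptavidin-only scavenger bead signal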
Recorded Conditions: bead-based flow cytometry, Alexa488-MEK5 binding to MEKK3; at 10 µM; actives lie on both sides
The campaign covered roughly 290,000 compounds. About 4,200 (1.4%) were called active.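 The calls were made as follows: active = binding response more than 3 SD above or below the average of its plate-row segment, actives on both sides; inconclusive = wells at one plate position flagged as instrument error; inactive = the rest.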 The sample as a whole holds a higher share of actives than the screen did.
Respond with a class label; see active, inactive

1) Cc1ccc(CN2CCCC(C(=O)c3ccc4c(c3)OCO4)C2)cc1C (stereo unspecified)
active
2) COC(=O)C1=C(c2cc3ccccc3s2)C[C@@H]2CC[C@H]1N2C(=O)NC(C)C
inactive
3) CN1CCN(C(=S)SCC(=O)Nc2ccc(Cl)cc2C(=O)c2ccccc2)CC1
inactive
4) Cc1ccsc1C(=O)C1CCCN(Cc2ccc(O)cc2)C1 (stereo unspecified)
inactive
5) CN(C)C(=O)Oc1ccc2c(c1)O/C(=C\c1ccccc1)C2=O
inactive
6) Fc1ccc(N2CCN(Cc3ccc4c(c3)OCO4)CC2)cc1
inactive
7) Cc1ccc(N2C(=O)NC(=O)C(CCc3ccncc3)(Cc3cccc(Cl)c3Cl)C2=O)cc1 (stereo unspecified)
active
8) CCCn1c(C(=O)c2ccccc2OC)nc2ccccc21
inactive

QUERY: Called result for CNCC(O)c1cc(F)c(OCc2ccccc2)c(OCc2ccccc2)c1F (stereo unspecified)
RESULT: inactive

QUERY: Answer briefly: the call reported for `COC(=O)C1=C(c2cc3ccccc3s2)C[C@@H]2CC[C@H]1N2C(=O)NCc1cccc2ccccc12` in this assay.
RESULT: inactive

QUERY: Record request — test call for `O=C(COC(=O)c1ccccc1)Nc1ccc(Cl)cc1C(=O)c1ccccc1`
RESULT: active

QUERY: Could you check what this test reported for `COc1cccc(OC)c1C(=O)NC(=S)N1C[C@H]2C[C@H](C1)c1cccc(=O)n1C2` ?
RESULT: inactive

QUERY: Call for entry COc1ccc2c(c1)[C@]13CCCCC1C(C2)N(C)CC3 (stereo partly specified) :
RESULT: inactive

QUERY: For `CCOc1ccc(CN(CCCl)CCCl)cc1C(=O)OC` , what call appears in the results of this test?
RESULT: inactive

QUERY: How did this test come out for `Cc1cc(=O)oc2c(C)c(OCC(=O)N3CCN(Cc4ccc5c(c4)OCO5)CC3)ccc12` ?
RESULT: inactive

QUERY: // return assay outcome for COc1ccc(C(=O)C2CCCN(Cc3ccc(C)s3)C2)cc1OC (stereo unspecified)
RESULT: inactive

* * *

Measured Target: Mitogen-activated protein kinase kinase kinase 3 (Homo sapiens) (UniProt Q99759)
Protocol Summary: modulators of MEKK3-MEK5 PB1 binding, primary screen, biochemical, wildtype MEKK3, multiplex bead flow cytometry, Alexa488-MEK5 (AID 1529);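 also: Alexa488 bead fluorescence after subtracting the streptavidin-only scavenger bead signal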
Recorded Conditions: bead-based flow cytometry, Alexa488-MEK5 binding to MEKK3; at 10 µM; actives lie on both sides
In all, about 290,000 compounds went through this assay and about 4,200 (1.4%) were called active. Shown is part of a subset that was picked to be rich in actives.
Property Label: binding response (% of control) (%)
Give your result in % as a bare value.

1) COC(=O)C1=C(c2cc3ccccc3o2)C[C@@H]2CC[C@H]1N2C(=O)NC1CCCCC1
103
2) COc1ccc2c(c1O)-c1cccc3c1[C@@H](C2)N(C)CC3
95
3) CN(C)CC1Oc2ccccc2OC1(O)c1ccccc1 (stereo not given)
106
4) COC(=O)C1=C(c2cc3ccccc3s2)C[C@@H]2CC[C@H]1N2C(=O)NCCO
107

Note: attention shifts to another entry.
QUERY: Give the reported binding response (% of control) for this compound. `COC(=O)C1=C(c2ccccc2)C[C@@H]2CC[C@H]1N2C(=O)N1CCCCC1`
RESULT: 102
